As shown below, each of these molecules has a reported relative viability value.
tested on: NCI-H1650; assay: relative viability (nuclei count vs DMSO), 5 days (fraction); higher = more cells survive; settings: first compound 0.5 µM

Molecule | relative viability
Nc1ccn([C@@H]2O[C@H](CO)[C@@H](O)[C@@H]2O)c(=O)n1 [Cytarabine] + COc1cccc2cc(-c3nc([C@H]4CC[C@H](C(=O)O)CC4)n4ncnc(N)c34)[nH]c12 [OSI-027] (partner 0.5 µM) | 0.259
COc1cc2nccc(Oc3ccc(NC(=O)Nc4cc(C)on4)c(Cl)c3)c2cc1OC [Tivozanib] + CCNC(=O)c1noc(-c2cc(C(C)C)c(O)cc2O)c1-c1ccc(CN2CCOCC2)cc1 [Luminespib] (partner 0.01 µM) | 0.203
Nc1ccn([C@@H]2O[C@H](CO)[C@@H](O)[C@@H]2O)c(=O)n1 [Cytarabine] + CS(=O)(=O)CCNCc1ccc(-c2ccc3ncnc(Nc4ccc(OCc5cccc(F)c5)c(Cl)c4)c3c2)o1 [Lapatinib] (partner 2 µM) | 0.155

###

tested on: UMC-11; assay: relative viability (nuclei count vs DMSO), 5 days (fraction); higher = more cells survive; settings: first compound 0.08 µM
As shown below, each of these molecules has a reported relative viability value.

Molecule | System tested | relative viability
O=c1[nH]c2ccccc2n1C1CCN(CCCC(c2ccc(F)cc2)c2ccc(F)cc2)CC1 [Pimozide] + CC(=O)c1c(C)c2cnc(Nc3ccc(N4CCNCC4)cn3)nc2n(C2CCCC2)c1=O [Palbociclib] (partner 0.5 µM) | UMC-11 | 0.313
O=c1[nH]c2ccccc2n1C1CCN(CCCC(c2ccc(F)cc2)c2ccc(F)cc2)CC1 [Pimozide] + CC(C)C[C@H](NC(=O)[C@H](Cc1ccccc1)NC(=O)c1cnccn1)B(O)O [Bortezomib] (partner 0.002 µM) | UMC-11 | 0.716
Cc1cnc(-c2cnc(NCCNc3ccc(C#N)cn3)nc2-c2ccc(Cl)cc2Cl)[nH]1 + Cc1nc(NC(=O)N2CCC[C@H]2C(N)=O)sc1-c1ccnc(C(C)(C)C(F)(F)F)c1 [Alpelisib] (partner 2 µM) | UMC-11 | 0.844
O=c1[nH]c2ccccc2n1C1CCN(CCCC(c2ccc(F)cc2)c2ccc(F)cc2)CC1 [Pimozide] + COc1cccc2cc(-c3nc([C@H]4CC[C@H](C(=O)O)CC4)n4ncnc(N)c34)[nH]c12 [OSI-027] (partner 0.5 µM) | UMC-11 | 0.515

###

tested on: A-427; test: relative viability (nuclei count vs DMSO), 5 days (fraction); higher = more cells survive; conditions: first compound 4 µM
As shown below, each of these molecules has a reported relative viability value.

Molecule | relative viability
Cc1sc2c(c1C)C(c1ccc(Cl)cc1)=N[C@@H](CC(=O)OC(C)(C)C)c1nnc(C)n1-2 [JQ1] + Cc1nc(NC(=O)N2CCC[C@H]2C(N)=O)sc1-c1ccnc(C(C)(C)C(F)(F)F)c1 [Alpelisib] (partner 2 µM) | 0.731
Cc1sc2c(c1C)C(c1ccc(Cl)cc1)=N[C@@H](CC(=O)OC(C)(C)C)c1nnc(C)n1-2 [JQ1] + Cc1nc(Nc2ncc(C(=O)Nc3c(C)cccc3Cl)s2)cc(N2CCN(CCO)CC2)n1 [Dasatinib] (partner 0.075 µM) | 0.529
Cc1sc2c(c1C)C(c1ccc(Cl)cc1)=N[C@@H](CC(=O)OC(C)(C)C)c1nnc(C)n1-2 [JQ1] + NC(=O)Nc1cc(-c2cccc(F)c2)sc1C(=O)N[C@H]1CCCNC1 [AZD7762] (partner 0.2 µM) | 0.416
